Entry source: the EternaBench riboswitch data

# Tested on: MS2 coat protein
# ASSAY SUMMARY: apparent Kd, MS2 coat protein; higher = weaker binding; RNA-MaP array; FMN 200 µM where present
# PROTOCOL CONDITIONS: ligand present: flavin mononucleotide; designed as: OFF switch for flavin mononucleotide
Each item that follows carries a reported apparent Kd.
Numbers only; they are read as nM.

(Q) Entry "CGAUGAGGUGUGAGGAUAUCGUGUUCGAAAGAACGUGAGAAGGCACAUGAGGAUCACCCAUGUCAACCUUGUCG" has what apparent Kd?
(A) 15.6

(Q) One more sequence: "GCUGACGAUGUAGGAUAUCUCGACGAUAAGUCGAGAGAAGGACAUGAGGAUCACCCAUGUAAAACUCCGUCAGCGAGGAAACUC"
(A) 17.8

(Q) What about "GCCUUAUCGGUCAGGAUAUACACCCGCCAGUUGUUGUAGAAGGGACAUGAGGAUCACCCAUGUACAUUACAUUG" ?
(A) 33.8

(Q) Next sequence up: "CGACAUACGAUGGACGGAAACGUACAUGAGGAUCACCCAUGUAGAAGGCGAUCCGCAACGCGGAUUGAGGAUAUAUACCACACA"
(A) 17.8

(Q) Try this sequence too: "ACAUGAGGAUCACCCAUGUAACAUGUGAAUUAAUUCUUUAACAGAAGGCGAAUAUAUAACAUUGUCGAGGAUAUGUACUUAUGU"
(A) 7.41
